Test system: Staphylococcus sp.
Experiment: in vitro antibacterial evaluation, MIC by broth dilution
Format: cell-based
Conditions: broth dilution, 18 hours at 35° C.
# MIC Staphylococcus aureus-SMITH (GC 4543) annotations
MEASUREMENT_LABEL: MIC Staphylococcus aureus-SMITH (GC 4543)

{"columns": ["COMPOUND", "VAL"],
 "data": [
  ["CC(c1ccccc1)C1NC(=O)CNC(=O)C(CO)NC(=O)C(C(O)C2CNC(=N)N2C2OC(CO)C(O)C(O)C2O)NC(=O)C(C(O)C2CNC(=N)N2)NC(=O)C(Cc2ccc(OC3OC(CO)C(OC4OC5COC(Cc6ccc(Br)cc6)OC5C(O)C4O)C(O)C3O)cc2)NC1=O (stereo not drawn)", "<0.5 to 1 µg/mL"],
  ["COc1ccc2cc(COC3C(CO)OC(OC4C(CO)OC(Oc5ccc(CC6NC(=O)C(C(C)c7ccccc7)NC(=O)CNC(=O)C(CO)NC(=O)C(C(O)C7CNC(=N)N7C7OC(CO)C(O)C(O)C7O)NC(=O)C(C(O)C7CNC(=N)N7)NC6=O)cc5)C(O)C4O)C(O)C3O)ccc2c1 (stereo not drawn) [Example 230a]", "0.5 to 2 µg/mL"],
  ["CC(C)CC(=O)OC1C(OC2C(CO)OC(Oc3ccc(CC4NC(=O)C(C(C)c5ccc(F)cc5)NC(=O)CNC(=O)C(CO)NC(=O)C(C(O)C5CNC(=N)N5C5OC(CO)C(O)C(O)C5O)NC(=O)C(C(O)C5CNC(=N)N5)NC4=O)cc3)C(O)C2O)OC(CO)C(O)C1O (stereo not drawn) [Example 261b]", "8 µg/mL"]
]}

----------
Tested on: Enterococcus sp.
Assay: in vitro antibacterial evaluation, MIC by broth dilution
Type: cell-based
Conditions: Enterococcus faecium (GC 2243); broth dilution, 18 hours at 35° C.
Source text: Methods for in vitro Antibacterial Evaluation (Table 1) […]

{"columns": ["COMPOUND", "MIC Enterococcus faecium (GC 2243)"],
 "data": [
  ["CC(c1ccccc1)C1NC(=O)CNC(=O)C(CO)NC(=O)C(C(O)C2CNC(=NCc3ccccc3)N2C2OC(CO)C(O)C(O)C2O)NC(=O)C(C(O)C2CNC(=N)N2)NC(=O)C(Cc2ccc(OC3OC(CO)C(OC4OC5COC6(OC5C(O)C4O)C4CC5CC(C4)CC6C5)C(O)C3O)cc2)NC1=O (stereo not drawn) [Example 76]", "2 to 8 µg/mL"],
  ["CC(c1ccccc1)C1NC(=O)CNC(=O)C(CO)NC(=O)C(C(O)C2CN(Cc3ccc(C(C)(C)C)cc3)C(=N)N2C2OC(CO)C(O)C(O)C2O)NC(=O)C(C(O)C2CNC(=N)N2)NC(=O)C(Cc2ccc(OC3OC(CO)C(OC4OC(CO)C(O)C(O)C4O)C(O)C3O)cc2)NC1=O (stereo not drawn) [Example 60]", ">128 µg/mL"],
  ["CC(c1ccccc1)C1NC(=O)CNC(=O)C(CO)NC(=O)C(C(O)C2CN(c3nc4ccccc4o3)C(=N)N2C2OC(CO)C(O)C(O)C2O)NC(=O)C(C(O)C2CNC(=Nc3nc4ccccc4o3)N2)NC(=O)C(Cc2ccc(OC3OC(CO)C(OC4OC(CO)C(O)C(O)C4O)C(O)C3O)cc2)NC1=O (stereo not drawn) [Example 93]", ">128 µg/mL"]
]}

----------
# MIC Streptococcus pneumoniae (ATCC 6301) annotations
Test system: Streptococcus sp.
Assay: in vitro antibacterial evaluation, MIC by broth dilution
Type: cell-based
Conditions: broth dilution, 18 hours at 35° C.

{"columns": ["COMPOUND", "MEASURED_TARGET", "MIC Streptococcus pneumoniae (ATCC 6301)"],
 "data": [
  ["CN=C1N(C)CC(CC2NC(=O)C(Cc3ccc(OC4OC(CO)C(OC5OC(CO)C(O)C(O)C5O)C(O)C4O)cc3)NC(=O)C(C(C)c3ccccc3)NC(=O)CNC(=O)C(CO)NC(=O)C(CC3CN(C)C(=NC)N3C3OC(CO)C(O)C(O)C3O)NC2=O)N1C (stereo not drawn)", "Streptococcus sp.", ">128 µg/mL"],
  ["CC(c1ccccc1)C1NC(=O)CNC(=O)C(CO)NC(=O)C(C(O)C2CNC(=N)N2C2OC(CO)C(O)C(O)C2O)NC(=O)C(C(O)C2CNC(=N)N2)NC(=O)C(Cc2ccc(OC3OC(CO)C(OC4OC5COC6(CCC(C(C)(C)C)CC6)OC5C(O)C4O)C(O)C3O)cc2)NC1=O (stereo not drawn)", "Streptococcus sp.", "<0.06 µg/mL"],
  ["CC(c1ccccc1)C1NC(=O)CNC(=O)C(CO)NC(=O)C(C(O)C2CNC(=N)N2C2OC(CO)C(O)C(O)C2O)NC(=O)C(C(O)C2CNC(=N)N2)NC(=O)C(Cc2ccc(OC3OC(CO)C(OC4OC5COC6(CC7CCC6(C)C7(C)C)OC5C(O)C4O)C(O)C3O)cc2)NC1=O (stereo not drawn)", "Streptococcus sp.", "<0.12 µg/mL"]
]}

----------
# MIC Staphylococcus haemolyticus (GC 4546) annotations
Test system: Staphylococcus sp.
Test: in vitro antibacterial evaluation, MIC by broth dilution
Format: cell-based
Details: broth dilution, 18 hours at 35° C.
MEASUREMENT_LABEL: MIC Staphylococcus haemolyticus (GC 4546)

{"columns": ["MOLECULE", "VAL"],
 "data": [
  ["CCCOc1ccc(COCC2OC(OC3C(CO)OC(Oc4ccc(CC5NC(=O)C(C(C)c6ccccc6)NC(=O)CNC(=O)C(CO)NC(=O)C(C(O)C6CNC(=N)N6C6OC(CO)C(O)C(O)C6O)NC(=O)C(C(O)C6CNC(=N)N6)NC5=O)cc4)C(O)C3O)C(O)C(O)C2O)cc1 (stereo not drawn)", "0.25 to 0.5 µg/mL"],
  ["CC(c1ccccc1)C1NC(=O)CNC(=O)C(CO)NC(=O)C(C(O)C2CNC(=N)N2C2OC(CO)C(O)C(O)C2O)NC(=O)C(C(O)C2CNC(=N)N2)NC(=O)C(Cc2ccc(OC3OC(CO)C(OC4OC(COCc5ccc(OCc6ccccc6)cc5)C(O)C(O)C4O)C(O)C3O)cc2)NC1=O (stereo not drawn)", "1 to 4 µg/mL"],
  ["CC(c1ccccc1)C1NC(=O)CNC(=O)C(CO)NC(=O)C(CC2CNC(=N)N2C2OC(CO)C(O)C(O)C2O)NC(=O)C(CC2CNC(=N)N2)NC(=O)C(Cc2ccc(OC3OC(CO)C(OC4OC(CO)C(O)C(O)C4O)C(O)C3O)cc2)NC1=O (stereo not drawn) [Example 277a]", ">128 µg/mL"]
]}

----------
# MIC Streptococcus pyogenes (GC 4563) annotations
System: Streptococcus sp.
Test: in vitro antibacterial evaluation, MIC by broth dilution
Assay type: cell-based
Details: strain GC 4563; broth dilution, 18 hours at 35° C.

{"columns": ["MOLECULE", "MIC Streptococcus pyogenes (GC 4563)"],
 "data": [
  ["CC(c1ccccc1)C1NC(=O)CNC(=O)C(CO)NC(=O)C(C(O)C2CNC(=N)N2C2OC(CO)C(O)C(O)C2O)NC(=O)C(C(O)C2CNC(=N)N2)NC(=O)C(Cc2ccc(OC3OC(CO)C(OC4OC5COC(c6ccc(C(=O)c7ccccc7)cc6)OC5C(O)C4O)C(O)C3O)cc2)NC1=O (stereo not drawn) [Example 173]", "<0.12 µg/mL"],
  ["CCCc1ccc(C2OCC3OC(OC4C(CO)OC(Oc5ccc(CC6NC(=O)C(C(C)c7ccccc7)NC(=O)CNC(=O)C(CO)NC(=O)C(C(O)C7CNC(=N)N7C7OC(CO)C(O)C(O)C7O)NC(=O)C(C(O)C7CNC(=N)N7)NC6=O)cc5)C(O)C4O)C(O)C(O)C3O2)cc1 (stereo not drawn) [Example 140]", "<0.5 µg/mL"],
  ["CC(c1ccccc1)C1NC(=O)CNC(=O)C(CO)NC(=O)C(C(O)C2CNC(=N)N2C2OC(CO)C(O)C(O)C2O)NC(=O)C(C(O)C2CNC(=N)N2)NC(=O)C(Cc2ccc(O)c(N(C)C)c2)NC1=O (stereo not drawn) [Example 12]", ">128 µg/mL"]
]}

----------
# MIC Staphylococcus aureus-SMITH (GC 4543) annotations
System: Staphylococcus sp.
Assay: in vitro antibacterial evaluation, MIC by broth dilution
Assay type: cell-based
Settings: strain GC 4543; broth dilution, 18 hours at 35° C.
MEASUREMENT_LABEL: MIC Staphylococcus aureus-SMITH (GC 4543) (µg/mL)

{"columns": ["COMPOUND", "MEASURED_TARGET", "QUALIFIER", "VAL"],
 "data": [
  ["CC(C)=CCCC(C)=CCN=C1NCC(C(O)C2NC(=O)C(C(O)C3CNC(=N)N3)NC(=O)C(Cc3ccc(OC4OC(CO)C(OC5OC6COC7(OC6C(O)C5O)C5CC6CC(C5)CC7C6)C(O)C4O)cc3)NC(=O)C(C(C)c3ccccc3)NC(=O)CNC(=O)C(CO)NC2=O)N1C1OC(CO)C(O)C(O)C1O (stereo not shown)", "Staphylococcus sp.", "=", 8],
  ["CC(c1ccccc1)C1NC(=O)CNC(=O)C(CO)NC(=O)C(C(O)C2CNC(=N)N2C2OC(CO)C(O)C(O)C2O)NC(=O)C(C(O)C2CNC(=N)N2)NC(=O)C(Cc2ccc3oc(-c4ccoc4)nc3c2)NC1=O (stereo not shown)", "Staphylococcus sp.", "=", 64],
  ["CC(C1CCCCC1)C1NC(=O)CNC(=O)C(CO)NC(=O)C(C(O)C2CNC(=N)N2C2OC(CO)C(O)C(O)C2O)NC(=O)C(C(O)C2CNC(=N)N2)NC(=O)C(Cc2ccc(OC3OC(CO)C(OC4OC5COC(c6ccccc6)OC5C(O)C4O)C(O)C3O)cc2)NC1=O (stereo not shown)", "Staphylococcus sp.", "=", 0.5],
  ["CC(c1ccccc1)C1NC(=O)CNC(=O)C(CO)NC(=O)C(C(O)C2CN(Cc3ccc(C(C)(C)C)cc3)C(=N)N2C2OC(CO)C(O)C(O)C2O)NC(=O)C(C(O)C2CNC(=N)N2)NC(=O)C(Cc2ccc(OC3OC(CO)C(OC4OC5COC6(OC5C(O)C4O)C4CC5CC(C4)CC6C5)C(O)C3O)cc2)NC1=O (stereo not shown)", "Staphylococcus sp.", "=", 8],
  ["COc1cc(-c2nc3cc(CC4NC(=O)C(C(C)c5ccccc5)NC(=O)CNC(=O)C(CO)NC(=O)C(C(O)C5CNC(=N)N5C5OC(CO)C(O)C(O)C5O)NC(=O)C(C(O)C5CNC(=N)N5)NC4=O)ccc3o2)cc(OC)c1OC (stereo not shown)", "Staphylococcus sp.", "=", 16],
  ["CC(c1ccccc1)C1NC(=O)CNC(=O)C(CO)NC(=O)C(C(O)C2CNC(=N)N2C2OC(CO)C(O)C(O)C2O)NC(=O)C(C(O)C2CNC(=N)N2)NC(=O)C(Cc2ccc(OC3OC(CO)C(OC4OC5COC6(CCCCCCCCCCC6)OC5C(O)C4O)C(O)C3O)cc2)NC1=O (stereo not shown)", "Staphylococcus sp.", "=", 1],
  ["CC(c1ccccc1)C1NC(=O)CNC(=O)C(CO)NC(=O)C(C(O)C2CNC(=N)N2C2OC(CO)C(O)C(O)C2O)NC(=O)C(C(O)C2CNC(=N)N2)NC(=O)C(Cc2ccc(OC3OC(CO)C(OC4OC5COC(c6ccccc6)OC5C(O)C4O)C(O)C3O)c(I)c2)NC1=O (stereo not shown)", "Staphylococcus sp.", ">", 64]
]}
